Biological target: T1, human GLP-2 receptor (human, UniProt O95838 1-553)
T1 sequence (looked up): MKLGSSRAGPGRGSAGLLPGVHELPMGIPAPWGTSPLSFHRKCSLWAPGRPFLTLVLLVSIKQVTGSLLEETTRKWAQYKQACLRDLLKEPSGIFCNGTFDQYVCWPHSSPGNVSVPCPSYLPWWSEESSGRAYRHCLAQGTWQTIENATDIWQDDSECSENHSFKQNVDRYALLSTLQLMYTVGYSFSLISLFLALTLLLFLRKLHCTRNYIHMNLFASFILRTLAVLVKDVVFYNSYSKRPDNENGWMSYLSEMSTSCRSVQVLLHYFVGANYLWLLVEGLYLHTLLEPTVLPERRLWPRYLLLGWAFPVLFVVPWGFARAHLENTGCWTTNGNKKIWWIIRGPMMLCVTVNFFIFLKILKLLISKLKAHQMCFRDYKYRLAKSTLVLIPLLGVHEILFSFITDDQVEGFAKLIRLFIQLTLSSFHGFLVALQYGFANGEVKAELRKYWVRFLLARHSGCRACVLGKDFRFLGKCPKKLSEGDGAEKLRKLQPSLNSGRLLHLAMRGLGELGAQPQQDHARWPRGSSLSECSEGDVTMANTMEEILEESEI
Assay: cell-based or functional assay
For each entry below, report its logEC50 (cAMP) value.
Enter a number only.

What does the data say about its logEC50 (cAMP)? Entry: HADGTFISDYSTILDNLAARDFINWLIQTKITD [GIP-GLP-2 co-agonist 3]
-7.67

Entry HAEGTFSDEYSTILDNLAARDFINWLIQTKITD [GIP-GLP-2 co-agonist 5] : reported logEC50 (cAMP) = ?
-8.21

I have this binder here, HADGTFISDYSTILDNLAARDFINWLIQTKIKD [GIP-GLP-2 co-agonist 17] , and I need its recorded logEC50 (cAMP).
-7.61
